biological target: 11-beta-hydroxysteroid dehydrogenase 1 (Homo sapiens); test: Inhibition of human 11beta-HSD1 expressed in Escherichia coli
Sequence (P28845 whole entry): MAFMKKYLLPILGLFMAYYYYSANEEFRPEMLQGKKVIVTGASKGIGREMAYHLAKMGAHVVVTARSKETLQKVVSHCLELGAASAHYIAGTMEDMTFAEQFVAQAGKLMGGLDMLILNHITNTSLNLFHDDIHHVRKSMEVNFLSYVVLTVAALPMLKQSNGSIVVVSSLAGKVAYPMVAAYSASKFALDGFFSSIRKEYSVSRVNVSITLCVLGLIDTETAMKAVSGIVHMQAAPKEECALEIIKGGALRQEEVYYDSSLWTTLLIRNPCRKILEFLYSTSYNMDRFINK
pIC50: −log10 of the molar value.
METRIC_NAME: pIC50

Query :: # lookup: pIC50 of CNc1ccc(C(C)(C)C(=O)N[C@H]2C3C[C@@H]4C[C@H]2C[C@@](CC(N)=O)(C3)C4)cn1
Result :: 7.54

(1) CC(C)(Oc1ccc(Cl)cc1)C(=O)N[C@H]1C2C[C@@H]3C[C@H]1C[C@@](Cc1nnn[nH]1)(C2)C3
(2) CN1CCN(c2ccc(OC(C)(C)C(=O)N[C@H]3C4C[C@@H]5C[C@H]3C[C@@](CC(N)=O)(C4)C5)nc2)CC1
(3) CC(C)(Oc1ccc(-n2cccn2)cn1)C(=O)N[C@H]1C2C[C@@H]3C[C@H]1C[C@@](CC(N)=O)(C2)C3
Query :: Sort ascending by pIC50. Give the labels in the order specified.
Result :: 2, 1, 3

----------
target: 11-beta-hydroxysteroid dehydrogenase 1 (Homo sapiens); test: Inhibition of human 11beta-HSD1 expressed in HEK293 cells; format: cell-based
pIC50: −log10 of the molar value.
METRIC_NAME: pIC50

Query :: # lookup: pIC50 of CC(C)(Oc1ccc(Cl)cc1)C(=O)N[C@H]1C2C[C@@H]3C[C@H]1C[C@@](c1nc(C#N)c(N)o1)(C2)C3
Result :: 6.51

Query :: # lookup: pIC50 of CC(C)(C(=O)N[C@H]1C2C[C@@H]3C[C@H]1C[C@@](CC(N)=O)(C2)C3)c1ccc(C#N)cn1
Result :: 6.78

(P) CC(C)(Oc1ccc(Cl)cc1)C(=O)N[C@H]1C2C[C@@H]3C[C@H]1C[C@@](Cc1nnn[nH]1)(C2)C3
(Q) CNc1ccc(C(C)(C)C(=O)N[C@H]2C3C[C@@H]4C[C@H]2C[C@@](CC(N)=O)(C3)C4)cn1
(R) CC(C)(Oc1ccc(-n2cccn2)cn1)C(=O)N[C@H]1C2C[C@@H]3C[C@H]1C[C@@](CC(N)=O)(C2)C3
(S) CC(C)(Oc1ccc(N2CCOCC2)cn1)C(=O)N[C@H]1C2C[C@@H]3C[C@H]1C[C@@](CC(N)=O)(C2)C3
Query :: Sort ascending by pIC50. Give the labels in the order specified.
Result :: S, Q, P, R
(S: 6.35, Q: 6.61, P: 6.92, R: 7.42)

----------
Molecular target: 11-beta-hydroxysteroid dehydrogenase type 2 (Mus musculus)
Sequence (P51661 whole entry): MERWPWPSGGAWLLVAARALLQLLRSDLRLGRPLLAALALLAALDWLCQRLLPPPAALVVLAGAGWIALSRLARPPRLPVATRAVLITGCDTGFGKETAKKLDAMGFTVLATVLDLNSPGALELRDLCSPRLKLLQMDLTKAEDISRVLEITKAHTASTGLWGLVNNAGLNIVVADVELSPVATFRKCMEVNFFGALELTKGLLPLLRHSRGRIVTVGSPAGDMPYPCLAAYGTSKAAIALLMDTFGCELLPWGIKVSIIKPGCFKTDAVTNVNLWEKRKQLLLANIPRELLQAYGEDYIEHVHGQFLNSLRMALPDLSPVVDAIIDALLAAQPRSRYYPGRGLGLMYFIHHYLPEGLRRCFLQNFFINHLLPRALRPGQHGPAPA
METRIC_NAME: IC50 (µM)

Query :: # lookup: IC50 of CC(C)(C(=O)N[C@H]1C2C[C@@H]3C[C@H]1C[C@@](CC(N)=O)(C2)C3)c1ccc(C#N)cn1
Result :: 15

(a) CC(C)(Oc1ccc(Cl)cc1)C(=O)N[C@H]1C2C[C@@H]3C[C@H]1C[C@@](CC(=O)O)(C2)C3
(b) CC(C)(Oc1ccc(Cl)cc1)C(=O)N[C@H]1C2C[C@@H]3C[C@H]1C[C@@](c1nc(C#N)c(N)o1)(C2)C3
(c) CC(C)(Oc1ccc(Cl)cc1)C(=O)N[C@H]1C2C[C@@H]3C[C@H]1C[C@@](c1noc(=O)[nH]1)(C2)C3
(d) CC(C)(Oc1ccc(Cl)cc1)C(=O)N[C@H]1C2C[C@@H]3C[C@H]1C[C@@](Cc1nnn[nH]1)(C2)C3
Query :: Sort ascending by IC50. Give the labels in the order specified.
Result :: d, a, b, c

----------
biological target: 11-beta-hydroxysteroid dehydrogenase 1 (Mus musculus) (UniProt P50172); experiment: Inhibition of DIO mouse adipose tissue 11beta-HSD1 at 30 mg/kg 7 hrs post dose; format: organism-based; parameters: dose 30 mg/kg
Sequence (P50172 whole entry, looked up): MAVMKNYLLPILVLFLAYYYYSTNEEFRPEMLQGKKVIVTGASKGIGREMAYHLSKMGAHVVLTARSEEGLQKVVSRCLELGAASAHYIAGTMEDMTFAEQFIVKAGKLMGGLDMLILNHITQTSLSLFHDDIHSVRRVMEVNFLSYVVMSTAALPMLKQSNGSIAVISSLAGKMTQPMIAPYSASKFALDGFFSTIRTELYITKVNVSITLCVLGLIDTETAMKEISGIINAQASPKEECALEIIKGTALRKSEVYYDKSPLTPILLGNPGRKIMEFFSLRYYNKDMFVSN
METRIC_NAME: inhibition (%)

Query :: # lookup: inhibition of CC(C)(Oc1ccc(Cl)cc1)C(=O)N[C@H]1C2C[C@@H]3C[C@H]1C[C@@](CCC(=O)O)(C2)C3
Result :: 50

Query :: # lookup: inhibition of CC(C)(Oc1ccc(Cl)cc1)C(=O)N[C@H]1C2C[C@@H]3C[C@H]1C[C@@](/C(N)=N/O)(C2)C3
Result :: 92

(A) CC(C)(Oc1ccc(Br)cn1)C(=O)N[C@H]1C2C[C@@H]3C[C@H]1C[C@@](CC(N)=O)(C2)C3
(B) CC(C)(Oc1ccc(Cl)cc1)C(=O)N[C@H]1C2C[C@@H]3C[C@H]1C[C@@](CC(=O)O)(C2)C3
(C) CC(C)(Oc1ccc(Cl)cc1)C(=O)N[C@H]1C2C[C@@H]3C[C@H]1C[C@@](Cc1nnn[nH]1)(C2)C3
Query :: Order these by inhibition, descending, and give the full ranking. Give the labels in the order specified.
Result :: B, A, C
(B: 70%, A: 47%, C: 17%)

----------
assay: Bioavailability in mouse plasma at 10 mg/kg; format: ADME, organism-based
METRIC_NAME: bioavailability (%)

Query :: # lookup: bioavailability of CC(C)(Oc1ccc(Cl)cc1)C(=O)N[C@H]1C2C[C@@H]3C[C@H]1C[C@@](CCC(=O)O)(C2)C3
Result :: 86.3

(1) CC(C)(Oc1ccc(Cl)cc1)C(=O)N[C@H]1C2C[C@@H]3C[C@H]1C[C@@](/C(N)=N/O)(C2)C3
(2) CC(C)(Oc1ccc(Cl)cc1)C(=O)N[C@H]1C2C[C@@H]3C[C@H]1C[C@@](CC(=O)O)(C2)C3
(3) CC(C)(Oc1ccc(Cl)cc1)C(=O)N[C@H]1C2C[C@@H]3C[C@H]1C[C@@](Cc1nnn[nH]1)(C2)C3
Query :: Order these by bioavailability, descending, and give the full ranking. Give the labels in the order specified.
Result :: 2, 1, 3

----------
assay: Plasma clearance in mouse at 10 mg/kg; assay type: ADME, organism-based; parameters: dose 10 mg/kg
METRIC_NAME: clearance (mL/min/kg)

Below are worked cases with known answers.
Query :: # lookup: clearance of CC(C)(Oc1ccc(Cl)cc1)C(=O)N[C@H]1C2C[C@@H]3C[C@H]1C[C@@](/C(N)=N/O)(C2)C3
Result :: 76.7

Query :: # lookup: clearance of CC(C)(Oc1ccc(Cl)cc1)C(=O)N[C@H]1C2C[C@@H]3C[C@H]1C[C@@](CCC(=O)O)(C2)C3
Result :: 13.3

(I) CC(C)(Oc1ccc(Cl)cc1)C(=O)N[C@H]1C2C[C@@H]3C[C@H]1C[C@@](Cc1nnn[nH]1)(C2)C3
(II) CC(C)(Oc1ccc(Cl)cc1)C(=O)N[C@H]1C2C[C@@H]3C[C@H]1C[C@@](CC(=O)O)(C2)C3
Query :: Compare the recorded clearance of I and II ; state which is larger. Provide the label of your selected option as the answer.
Result :: I

meta.source: ChEMBL document CHEMBL1137283
